Where these numbers come from: the supplement of paper PMC6555819

# Test system: PPARg DBDmut IVT, anti-PPARg (DBD mutation: PPARg1 K132A/R137A, NR concentration 270 nM)
# method: PBM binding z-score (relative to random genomic background probes); higher = stronger binding; sequences stand for … in GC…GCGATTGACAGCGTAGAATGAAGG
Would you mind telling me the reported PBM binding z-score of each entry?
Give your answer as a number; write no unit.

input: # returns recorded PBM binding z-score (system: PPARg DBDmut IVT, anti-PPARg (DBD mutation: PPARg1 K132A/R137A, NR concentration 270 nM)) for TCTTGTAGATCAGCAGGATAAGAAAGCTGGCCAA
output: -0.242

input: # returns recorded PBM binding z-score (system: PPARg DBDmut IVT, anti-PPARg (DBD mutation: PPARg1 K132A/R137A, NR concentration 270 nM)) for CCAGGCAGGTGAAAGGTAACTCAGTCTGGTACGC
output: -0.814

input: # returns recorded PBM binding z-score (system: PPARg DBDmut IVT, anti-PPARg (DBD mutation: PPARg1 K132A/R137A, NR concentration 270 nM)) for ATCTCTAGGTAAAGATAGTTCATTGAATGCAAAT
output: 1.29

input: # returns recorded PBM binding z-score (system: PPARg DBDmut IVT, anti-PPARg (DBD mutation: PPARg1 K132A/R137A, NR concentration 270 nM)) for TCATATAGGTAAAACAGGTGAAAGTCGGCATCTA
output: 1.07

input: # returns recorded PBM binding z-score (system: PPARg DBDmut IVT, anti-PPARg (DBD mutation: PPARg1 K132A/R137A, NR concentration 270 nM)) for CGTCCAAGGTCAGCAGGTCATTGAAAGCGACGTG
output: -0.0575

input: # returns recorded PBM binding z-score (system: PPARg DBDmut IVT, anti-PPARg (DBD mutation: PPARg1 K132A/R137A, NR concentration 270 nM)) for GCTGCTAGCTCAGGTTGGTCAGCTAACGGGTACG
output: -1.62

###

# Test system: RARb homodimer (NR concentration 270 nM)
# method: PBM binding z-score (relative to random genomic background probes); higher = stronger binding; sequences stand for … in GC…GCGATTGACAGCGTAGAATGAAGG
property: PBM binding z-score

input: For the sequence shown here, CATACAGGGTCAGCTAGGACAGAGTAGGGACGGC , give the reported PBM binding z-score.
output: 3.14

input: For the sequence shown here, ACTATTAGTTGACTTAGGGCAAACGATACGACGC , give the reported PBM binding z-score.
output: 0.722

input: For the sequence shown here, CCTACTGGGCCACGAAAGATCATTGATTCAGTGA , give the reported PBM binding z-score.
output: -0.335

input: For the sequence shown here, TAGCCTAGGGCAGATCGGGCCAGTATACGCTATA , give the reported PBM binding z-score.
output: -0.161

input: For the sequence shown here, TCTTGTAGATCATGCAGGTTAAGAAAGCCTGAGT , give the reported PBM binding z-score.
output: 0.268

input: For the sequence shown here, ATATGTAGGTTACATCCGGGTCCTTCAGGCTATG , give the reported PBM binding z-score.
output: 0.958

###

# Tested on: PPARg:RXRa 30nM:10nM, anti-RXR (NR concentration 30 nM, RXRa partner concentration 10 nM)
# method: PBM binding z-score (relative to random genomic background probes); higher = stronger binding; sequences stand for … in GC…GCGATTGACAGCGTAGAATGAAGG
property: PBM binding z-score
Give your answer as a number; write no unit.

input: For the sequence shown here, GCTGCTAGGTCAGGCTGGTCAGCTAACGGGTACG , give the reported PBM binding z-score.
output: -0.364

input: For the sequence shown here, CCGGCTGGGGCAAGGTTACCATAACGCACAGCCA , give the reported PBM binding z-score.
output: -0.299

input: For the sequence shown here, CCTTACGGGTCACTCCAGGTTATGGCATCGGAGT , give the reported PBM binding z-score.
output: 0.907

input: For the sequence shown here, ACTATTAGTTGACTTAGGGCGACCGATACGACGC , give the reported PBM binding z-score.
output: 0.295

input: For the sequence shown here, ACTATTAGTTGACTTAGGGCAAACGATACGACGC , give the reported PBM binding z-score.
output: 0.276

input: For the sequence shown here, CGTCAAAGTTCAACTAAGGTGACGTAAAGCACGC , give the reported PBM binding z-score.
output: 2.52

input: For the sequence shown here, ATCTCTAGGTAATAAGTTCAGTGAAAGAGAGGAC , give the reported PBM binding z-score.
output: 1.36

input: For the sequence shown here, TCATATAGGTAAATGGTGAAAGTCGGTGTGGTAA , give the reported PBM binding z-score.
output: 4.15

input: For the sequence shown here, AATACAGGGTCACTAGGCTAGAGTAGGTACGAAT , give the reported PBM binding z-score.
output: 2.53

input: For the sequence shown here, TTACCAAGGTGAAGGTCGTTCATCCCTCTGTAGA , give the reported PBM binding z-score.
output: 2.5

input: For the sequence shown here, ACTCGGACGACAAAGGTCAGAGCTACGCCAGTGA , give the reported PBM binding z-score.
output: 2.65

input: For the sequence shown here, CCTAGTTGGTCAGGACGTCACACACCGGATATGA , give the reported PBM binding z-score.
output: -0.177
